biological target: recombinant MMP-9 enzyme (Homo sapiens, UniProt P14780); test: MMP-9 inhibitor screening assay (fluorometric); details: fluorometric; second-order polynomial fit of % inhibition vs concentration
Sequence (P14780 94-707): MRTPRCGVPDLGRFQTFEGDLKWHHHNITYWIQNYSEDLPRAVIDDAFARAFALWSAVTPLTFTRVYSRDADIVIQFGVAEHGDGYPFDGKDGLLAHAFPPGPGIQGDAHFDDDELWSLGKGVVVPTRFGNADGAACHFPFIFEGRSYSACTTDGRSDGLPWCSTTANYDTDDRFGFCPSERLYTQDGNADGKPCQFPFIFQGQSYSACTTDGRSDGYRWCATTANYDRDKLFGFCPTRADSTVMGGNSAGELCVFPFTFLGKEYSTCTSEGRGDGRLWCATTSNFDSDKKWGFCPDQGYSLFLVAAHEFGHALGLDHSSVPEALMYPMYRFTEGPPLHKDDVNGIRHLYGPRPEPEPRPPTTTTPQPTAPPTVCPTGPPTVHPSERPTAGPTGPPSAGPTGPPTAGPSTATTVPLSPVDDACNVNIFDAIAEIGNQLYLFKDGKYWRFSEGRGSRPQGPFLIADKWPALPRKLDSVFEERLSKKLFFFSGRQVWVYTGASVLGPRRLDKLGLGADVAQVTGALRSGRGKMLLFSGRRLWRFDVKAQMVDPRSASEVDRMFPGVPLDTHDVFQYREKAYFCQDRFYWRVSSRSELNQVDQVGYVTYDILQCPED
pIC50: −log10 of the molar value.

compound	pIC50
Cc1nc2[nH]c(=O)n(C)c(=O)c2nc1C	4.25
